Test system: COLO 205 colon
Test: NCI tumour cell line growth inhibition, 48 h
Value kind: TGI

A selection of reference data follows.
Compound: O=C(O)CC1OCC=C2CN3CCC45C6=CC(=O)C(=O)C([N+](=O)[O-])=C6NC4C1C2CC35 (stereo not given)
Measured on: COLO 205 colon
TGI: > 100 µM
--
Compound: Cc1ccc2c(c1)C(=O)c1c-2n(CCCBr)c(=O)c2cc([N+](=O)[O-])ccc12
Measured on: COLO 205 colon
TGI: > 100 µM
--
Compound: O=S(=O)(O)c1ccc2c(N=Nc3ccc(F)cc3)c(O)c(S(=O)(=O)O)cc2c1
Measured on: COLO 205 colon
TGI: > 100 µM
--
Compound: O=C(Nc1nc(=S)c2c(ncn2CCO)[nH]1)c1ccccc1
Measured on: COLO 205 colon
TGI: > 100 µM
--
Compound: O=C1Nc2ccccc2/C1=C/c1c(Cl)[nH]c2ccc(O)cc12
Measured on: COLO 205 colon
TGI: 6.4 µM
--
Compound: CC12c3c4cc(Br)cc3Oc3cc(Br)cc(c31)Oc1cc(Br)cc(c12)O4
Measured on: COLO 205 colon
TGI: > 100 µM
--
Compound: Cc1c(Cl)cccc1NC1=C(Cl)C(=O)N(Cc2ccccc2)C1=O
Measured on: COLO 205 colon
TGI: 57.2 µM
--
Compound: Nc1nc(N)c2[nH]cnc2n1 (tested in a mixture with another compound)
Measured on: COLO 205 colon
TGI: > 100 µM

Hi there! I need TGI for each item below, if you can.
1. CCCC(Sc1ccccc1)P(=O)(c1ccccc1)c1ccccc1 (stereo not given)
2. Cn1ccnc1C(=O)/C=C/c1ccc(CC(=O)Nc2ccc(C(F)(F)F)cc2)cc1

Solution:
["> 100 µM", "6.17 µM"]

* * *

Assign TGI to each entry below.
Test system: SNB-19 CNS
Test: NCI tumour cell line growth inhibition, 48 h

Compound: C=C=C(Sc1ccccc1)C(C)(C)OC(C)=O
Measured on: SNB-19 CNS
TGI: 40.4 µM
//
Compound: O=C1CCCCC/C1=C\c1ccc(Cl)cc1
Measured on: SNB-19 CNS
TGI: > 100 µM
//
Compound: CC(C)(CO)NC(=O)Nc1c(C(F)(F)F)cc(-c2ccccc2)[nH]c1=O
Measured on: SNB-19 CNS
TGI: > 100 µM
//
Compound: CS(=O)(=O)Nc1ccc(N=Cc2c(O)[nH]c3ccccc23)cc1
Measured on: SNB-19 CNS
TGI: > 25 µM
//
Compound: C=CC1C(OC2OC(CO)C(O)C(O)C2O)OC=C(C(=O)OC)C1CC=O (stereo not given)
Measured on: SNB-19 CNS
TGI: > 100 µM
//
Compound: COc1cccc2c1C(=O)c1ccc3cc(CCl)cc(O)c3c1C2=O
Measured on: SNB-19 CNS
TGI: 1.86 µM
//
Compound: NC(=O)NC(=O)c1cccc(NC(=O)CF)c1
Measured on: SNB-19 CNS
TGI: > 100 µM
//
Compound: C=C1CCC2C3(C)COC(c4ccccc4Br)OC3CCC2(C)C1C/C=C1/C(=O)OCC1OC(C)=O (stereo not given)
Measured on: SNB-19 CNS
TGI: 5.85 µM

Would you be so kind as to report TGI for each listed record?
1. COC(=O)C(F)C(Br)C(=O)OC (stereo not given)
2. COC(=O)[C@@]12C(=O)C(C)C(=O)[C@]1(C)C(C)=C[C@H]1[C@]3(C=O)CC[C@H](OC(C)=O)C(C)(C)[C@H]3CC[C@@]12C (stereo not given in full)

Solution:
1: > 79.3 µM; 2: > 100 µM
